# experimentalProtocol: qHTS Assay to Find Inhibitors of Chronic Active B-Cell Receptor Signaling: Hit Validation in Primary Screen; also: nearly all actives have a fitted effect of over 75% in size; also: potency is read from the fitted curve at half-maximal effect
# conditionParameters: ABC-DLBCL IkB-luc/CBR ratio luminescence, 4 h; series mostly up to 46.1 µM
The campaign covered roughly 1,200 compounds. About 480 (40%) were called active. Another 29% or so got no clear call; they are omitted. The list shows a part of the results.
parameter: Potency

Worked cases, answers included:
compound	Potency
CCOc1cc(-c2nnc(SCC(=O)NCc3ccccc3)nc2-c2ccc(OC)c(OCC)c2)ccc1OC	2.59 µM (active)
COc1ccc(CCNCC(O)COc2cccc(Br)c2)cc1 (configuration not stated)	inactive
COc1ccc(-c2cnc3c(c2)CCC3(C#N)C#N)cc1	3.66 µM (active)
CCOc1ccc(C2=Nn3c(nnc3-c3ccccc3OC)SC2)cc1	0.0731 µM (active)
CCn1c(O)c(N=NC(=S)NCC2CCCO2)c2ccccc21 (configuration not stated)	inactive
CCCSc1nc(C)c(C(C)=O)cc1C#N	16.4 µM (active)
COc1ccccc1CNC(=O)CSc1ccc(C)cc1	inactive
COc1ccc(C2=Nn3c(nnc3-c3ccccn3)SC2)cc1OC	inactive
COc1ccc(C2=Nn3c(nnc3-c3ccc(OC)cc3)SC2)cc1	14.6 µM (active)
COc1ccc(NC(=S)N/N=C/c2ccc(F)cc2)cc1OC	inactive

Sample `CC(C)c1ccc(/C=N/NC(=O)c2ccccc2Cl)cc1` ; Potency observed: 20.6 µM (active)

Sample `Cc1[nH]n(C(N)=S)c(=O)c1N=Nc1ccc2ccccc2c1` ; Potency observed: inactive

----------
# experimentalProtocol: qHTS Assay to Find Inhibitors of Chronic Active B-Cell Receptor Signaling: Hit Validation in Primary Screen; also: nearly all actives have a fitted effect of over 75% in size; also: potency is read from the fitted curve at half-maximal effect
# conditionParameters: ABC-DLBCL IkB-luc/CBR ratio luminescence, 4 h; series mostly up to 46.1 µM
In all, about 1,200 compounds went through this assay and about 480 (40%) were called active. Not shown: some 29% with an inconclusive outcome. Some of the results follow.
parameter: Potency

Worked cases, answers included:
compound	parameter	result
O=C(Oc1c(CN2CCOCC2)cc(Cl)c2cccnc12)c1ccccc1Cl	Potency	inactive
CCCC1=Nc2cc(C(=O)NCCCOC(C)C)ccc2Sc2ccccc21	Potency	20600 nM (active)
COc1ccc(OC)c(C2C3=C(COC3=O)Nc3cc4c(cc32)OCO4)c1 (stereo unspecified)	Potency	366 nM (active)
CCCC1=Nc2cc(C(=O)NCCCOCC)ccc2Sc2ccccc21	Potency	1030 nM (active)
Cc1cc(=O)[nH]c2ccc(S(=O)(=O)Nc3ccc(O)cc3)cc12	Potency	inactive
CCC1=Nc2cc(C(=O)NCCCOC)ccc2Sc2ccccc21	Potency	2060 nM (active)
COc1ccccc1C1=NOC(COc2ccc3c(C)cc(=O)oc3c2)C1 (stereo unspecified)	Potency	8200 nM (active)
CCCCOc1ccc2c(C)cc(=O)oc2c1OCCCC	Potency	inactive
Cc1cc(=O)oc2cc(OCC3CC(c4ccccc4Cl)=NO3)ccc12 (stereo unspecified)	Potency	2590 nM (active)
O=c1cnnc(N/N=C/C2CC=CCC2)[nH]1 (stereo unspecified)	Potency	inactive

With those in mind, consider the next compound.
Sample `O=C(CCl)Nc1cc(S(=O)(=O)N2CCCCCC2)ccc1Cl` ; Potency observed: 20600 nM (active)

----------
# experimentalProtocol: qHTS Assay to Find Inhibitors of Chronic Active B-Cell Receptor Signaling: Hit Validation in Primary Screen; also: nearly all actives have a fitted effect of over 75% in size
# conditionParameters: ABC-DLBCL IkB-luc/CBR ratio luminescence, 4 h; series mostly up to 46.1 µM
Screen size: about 1,200 compounds; about 480 (40%) were called active. Roughly 29% stayed inconclusive and do not appear here. The call rests on the fitted dose curve; in most records, active means well fitted inhibition curve with a large enough effect; inconclusive means small, poorly fitted or top-dose-only effect; inactive means no such curve, though single readings can be large or run the other way. The list shows a part of the results.
The categories you may choose from are Y for active, N for inactive

Inquiry: // outcome(item) with item = CC1CCC(n2c(=S)[nH]c3ccccc3c2=O)CC1 (centres undefined)
Reply text: N

Inquiry: // outcome(item) with item = `Cc1ccc2[nH]c(C(=O)N/N=C/c3ccccc3C(=O)O)c(-c3ccccc3)c2c1`
Reply text: N

Inquiry: // outcome(item) with item = `Cc1nn(-c2ccccc2)c(C)c1/C=N/NC(=O)c1cc(-c2ccccc2)n[nH]1`
Reply text: Y

Inquiry: // outcome(item) with item = `COc1ccc(CC(=O)OCC(=O)c2c[nH]c3ccccc23)cc1`
Reply text: N

Inquiry: // outcome(item) with item = `CC/C(=N/Nc1ccc(Cl)cc1)c1cnnc(SC)n1`
Reply text: N

Inquiry: // outcome(item) with item = `COc1cc(OC)c2c(-c3cccc(-c4ccc(OC)c(F)c4)c3)cc(=O)oc2c1`
Reply text: Y

Inquiry: // outcome(item) with item = `N#Cc1c(NC(=O)/C=C/c2ccco2)sc2c1CCCC2`
Reply text: Y

Inquiry: // outcome(item) with item = CC(=O)Nc1ccc(S(=O)(=O)NCC(=O)OC(C)c2ccccc2Cl)cc1 (centres undefined)
Reply text: N

Inquiry: // outcome(item) with item = `CCOc1ccc2[nH]c(C(=O)N/N=C/c3ccc(OC)cc3)cc2c1`
Reply text: Y

Inquiry: // outcome(item) with item = `COc1ccc(/C(C)=N/Nc2ccc(C(=O)O)cc2)cc1OC`
Reply text: Y

Inquiry: // outcome(item) with item = `Cc1ccc(Nc2nc(-c3c(C)nc4ccccn34)cs2)cc1`
Reply text: Y

Inquiry: // outcome(item) with item = CC(=O)c1ccc2c(c1)CC(C)C(=O)N2C (centres undefined)
Reply text: N

Inquiry: // outcome(item) with item = N#CC1=C2SCC(O)(c3ccccc3)N2C(=O)CC1c1cccs1 (centres undefined)
Reply text: Y

Inquiry: // outcome(item) with item = `O=C(N/N=C/c1ccc(O)cc1)c1[nH]c2ccc(Br)cc2c1-c1ccccc1`
Reply text: Y

Inquiry: // outcome(item) with item = CCC(C)NC(=O)c1ccccc1NC(=O)c1ccc(CSc2ccccc2)cc1 (centres undefined)
Reply text: N

Inquiry: // outcome(item) with item = `CC1=Nc2cc(C(=O)NC3CCCCC3)ccc2Sc2ccc(Cl)cc21`
Reply text: Y

Inquiry: // outcome(item) with item = `COc1ccc(Nc2nc(-c3c(C)nc4ncccn34)cs2)cc1`
Reply text: Y

Inquiry: // outcome(item) with item = `O=c1[nH]c(-c2ccccn2)nc2sc(-c3ccccc3)cc12`
Reply text: Y

Inquiry: // outcome(item) with item = Cc1ccc(NC(=O)C(=O)NCC2CCCN2S(=O)(=O)c2cccs2)cc1C (centres undefined)
Reply text: N

Inquiry: // outcome(item) with item = `CCCC1=Nc2cc(C(=O)NC3CCCCC3)ccc2Sc2ccc(C)cc21`
Reply text: Y

Inquiry: // outcome(item) with item = COc1ccc(NC(=O)C(=O)NCC2CCCN2S(=O)(=O)c2ccc(C)cc2)cc1 (centres undefined)
Reply text: Y

Inquiry: // outcome(item) with item = `COc1ccccc1NC(=O)c1c(N=Cc2c(O)ccc3ccccc23)cnn1C`
Reply text: Y

Inquiry: // outcome(item) with item = `C[C@H]1C[C@@H]2[C@H]([C@@H](O)C[C@@]3(C)[C@H]2CC[C@]3(O)C(=O)CO)[C@@]2(C)C=CC(=O)C=C12`
Reply text: N

Inquiry: // outcome(item) with item = `COc1ccc(C(=O)N/N=C/c2ccccc2OC(=O)c2ccccc2)cc1`
Reply text: Y

Inquiry: // outcome(item) with item = `CCN(CC)C(=S)NC(=O)c1ccc(F)cc1`
Reply text: N

Inquiry: // outcome(item) with item = `COc1ccc(/C=N/NC(=O)c2[nH]c3ccc(Cl)cc3c2-c2ccccc2)c(C(=O)O)c1OC`
Reply text: N

Inquiry: // outcome(item) with item = `Cc1ccc(Nc2nc(-c3c(C)nc4ncccn34)cs2)cc1`
Reply text: Y

Inquiry: // outcome(item) with item = `Cc1cccc(C(=O)Oc2ccc(/C=N/O)cc2)c1`
Reply text: N

Inquiry: // outcome(item) with item = `Cc1ccc(/C=[N+](\[O-])c2ccc(N(C)C)cc2)c2nsnc12`
Reply text: N

Inquiry: // outcome(item) with item = `CC1=Nc2cc(C(=O)NC3CCCC3)ccc2Sc2ccc(Cl)cc21`
Reply text: Y

Inquiry: // outcome(item) with item = `COc1ccccc1-c1nnc2sc(-c3ccc(N(C)C)cc3)nn12`
Reply text: Y

Inquiry: // outcome(item) with item = N#CC1=C2SCC(O)(c3ccccc3)N2C(=O)CC1c1ccccc1 (centres undefined)
Reply text: Y

Inquiry: // outcome(item) with item = `Cc1nc2ncccn2c1-c1csc(Nc2ccc(N(C)C)cc2)n1`
Reply text: Y

Inquiry: // outcome(item) with item = COc1cc(C2=NOC(C(=O)NCc3ccc(F)cc3)C2)cc(OC)c1OC (centres undefined)
Reply text: Y

Inquiry: // outcome(item) with item = `O=C(COc1ccc(Oc2ccccc2)cc1)NCc1cn2ccccc2n1`
Reply text: Y

Inquiry: // outcome(item) with item = `CC(=O)Nc1ccc(S(=O)(=O)N2c3ccccc3C(C)=CC2(C)C)cc1`
Reply text: Y

Inquiry: // outcome(item) with item = `COc1ccc(NC(=O)/C(C#N)=C\c2cc(C)n(-c3ccc4c(c3)OCO4)c2C)cc1`
Reply text: Y

Inquiry: // outcome(item) with item = C=CCC(CC(O)COCCC)C(=O)NNC(=S)Nc1ccccc1 (centres undefined)
Reply text: N

Inquiry: // outcome(item) with item = `COC(=O)COc1cccc2c(=O)n(CC(=O)NCc3ccccc3)ccc12`
Reply text: Y

Inquiry: // outcome(item) with item = `COc1cc(NC(=S)NC(=O)c2ccccc2F)ccc1NC(=O)c1ccco1`
Reply text: N

Inquiry: // outcome(item) with item = `COc1cc(C(=O)NC2CCN(Cc3nnnn3Cc3ccc(F)cc3)CC2)cc(OC)c1OC`
Reply text: N

Inquiry: // outcome(item) with item = `Cc1ccccc1N=Nc1c(C)[nH]n(C(N)=S)c1=O`
Reply text: N

Inquiry: // outcome(item) with item = `S=c1[nH]cnc2sc(-c3ccccc3)cc12`
Reply text: N

Inquiry: // outcome(item) with item = COc1cccc(N2CCN(C(=O)c3ccc(CS(=O)c4ccc(C)cc4)o3)CC2)c1 (centres undefined)
Reply text: Y
